Source: the supplement of paper PMC9170038

Quick reference for apparent KD of MS2 coat protein among some sequences
- System: MS2 coat protein
- assay: apparent KD of MS2 coat protein; designed switch direction (-1 OFF switch, 1 ON switch): -1; higher = weaker reporter binding
- conditionDetails: Eterna round: R95; input ligand: microRNA oligo, concentration not stated
State the answer as a number, implicitly in µM.

Some solved entries appear below for comparison.
> print(dat)
                                biosequence  observed
1  GCCAAGUCAGGAUAUACAUGAGGAUCACCCAUGUAGGACGCUAUUUUGAUCUUGGUAGGUAGAAGGGACAUGGG [Mainaso] (puzzle: Exclusion 3)    0.0218
2  GCCAGAGCAGGAUAUCUAAUAUGUCACAUGAGGAUCACCCAUGUCCAGCGAAAGCUGGAGGGAGAAGGGCUCUGGC [Fiskers Ex 5 - 21] (puzzle: Exclusion 5)    0.0518
3  UUUUAACAUGAGGAUCACCCAUGUGAGGAUAUCGUUAUUUAUAUUAAUAUUAAUAAAACGAGAAGGCACAUUUU [JMF 6] (puzzle: Exclusion 1)     0.117
4  AAGAAACAUGAGGAUCACCCAUGUGAGGAUAUGUAAAAGAAAAGAAAAGAAAGAAGAAACAGAAGGCACAAAGG [Mat - Mod of Hog D12] (puzzle: Exclusion 1)    0.0507
5  AAAACGGCAGGAUAUCGGAACAAUGACAUGAGGAUCACCCAUGUGAUCGUUUCACUUGGCCGAGAAGGGCCAAAAU [Xeinbelele] (puzzle: Exclusion 5)    0.0186

Let's switch to this sequence now.
In one line, give reported apparent KD of MS2 coat protein of the entry CGCGACUCAGGAUAUACAUGAGGAUCACCCAUGUGGAACGACUGGGUCGAUAAAAGGUGUAGAAGGGAGGAAAA [Invebies] (puzzle: Exclusion 3) .
0.0126
